Each recorded value in this set is attributed to PubChem BioAssay (NCI).

- Test system: MOLT-4 leukemia
- procedure.summary: NCI tumour cell line growth inhibition, 48 h
Listed next: entries and their corresponding TGI.
result.type: TGI

> print(dat)
                                   molecule  assay.value
1           CCOC(=O)c1cn2c(n1)sc1cc(F)ccc12     > 100 µM
2  Cc1ccc(Nc2nc(NNC(=O)Cc3ccccc3)nc(NNC(=O)c3ccncc3)n2)cc1      > 10 µM
3  CCCOc1nc(N)c2cnn(C3CCCCO3)c2n1 (stereo not given)     > 100 µM
4  CO[C@](C(=O)OC[C@H]1[C@@H](COC(C)=O)[C@@H]2O[C@H]1c1cc3c(cc12)OCO3)(c1ccccc1)C(F)(F)F     > 100 µM
5  COC(=O)[C@]1(C)CCC[C@@]2(C)C1CC[C@@]13C=C(C(C)C)[C@@H](CC1=O)CC23 (stereo not given in full)        31 µM

----------
- Tested on: SW-620 colon
- procedure.summary: NCI tumour cell line growth inhibition, 48 h
Catalogue of TGI values
result.type: TGI (µM)

> print(dat)
                                    molecule  units.symbol  censor.symbol  assay.value
 1  O=C(Nc1nc(=S)[nH][nH]1)C(=O)C(C(=O)c1ccc2ccccc2c1)C1OC(=O)c2ccccc21 (stereo unspecified)            µM              >          100
 2  Cc1nc(-c2nc(C)c(C(=O)NNC(=O)C[n+]3ccccc3)s2)sc1C(=O)NNC(=O)C[n+]1ccccc1            µM              >          100
 3  O=C1/C(=C\c2ccc(Cl)cc2Cl)Sc2scc(-c3ccc(O)c(O)c3)[n+]21            µM              =         29.7
 4  CCCCCCCCCCSC(=N)N (tested in a mixture with another compound)            µM              =          4.7
 5  CN(C)CC1CCC/C1=N/OC(=O)c1ccccc1 (stereo unspecified)            µM              >          100
 6  COc1cc2c(cc1O)[C@H](C)C(c1ccc(OC)c(OC)c1)O2 (stereo partly specified)            µM              =         19.4
 7  O=C(CC1Sc2ccccc2NC1=O)Nc1ccccc1[N+](=O)[O-] (stereo unspecified)            µM              >          100
 8  COc1cc2c(cc1OC)C(Cl)C(c1ccc(F)cc1)=C2Cl (stereo unspecified)            µM              =         30.4
 9  C=C1C[C@H](O)[C@H](Br)C(C)(C)[C@@]12CCC(C)=C(Cl)C2            µM              =         11.3
10  NC(N)=NS(=O)(=O)c1ccc(N=Nc2c(O)c(C(=O)O)cc3ccccc23)cc1            µM              >          100
11                      CCCCCCCCCCCCNC(=S)OC            µM              =         30.2

----------
- Tested on: SNB-19 CNS
- procedure.summary: NCI tumour cell line growth inhibition, 48 h; in the data active = GI50 below about 0.43 µM; inactive = the rest
Outcomes: 1 = active, 0 = inactive

> print(dat)
                                   molecule  class
1  O=C(NC1CCCCC1)NS(=O)(=O)c1ccc(N2N=C3c4ccccc4CC3C2c2ccc(Cl)cc2)cc1 (stereo not given)      0
2  C=C1C[C@H](O)[C@H](Br)C(C)(C)[C@@]12CCC(C)=C(Cl)C2      0
3      NC(=S)N/N=C\c1nccc2c(C(F)(F)F)cccc12      1
4  CCCCCCCCCCSC(=N)N (tested in a mixture with another compound)      0
5  O=C1NC(=NCc2ccccc2)S/C1=C\c1ccc2ncccc2c1      0

----------
- System: MCF7 breast
- procedure.summary: NCI tumour cell line growth inhibition, 48 h; in the data active = GI50 below about 0.43 µM; inactive = the rest
Possible outcomes: True for active, False for inactive

> print(dat)
                                    molecule  class
 1  COc1ccc(C(c2cc(OC)c(OC)c(OC)c2)n2cncn2)cc1O (centres undefined)   True
 2  Cc1ccc(-c2nc(N3CCNCC3)c3oc(-c4ccc(C)cc4)nc3n2)cc1  False
 3                                NCCNCCNCCN  False
 4  O=C1OCC2=C1C(c1cccc(Br)c1)c1cc3c(cc1N2CCO)OCCO3 (centres undefined)   True
 5  COc1cc(-c2nc3sccn3c2-c2ccnc(NCCNS(=O)(=O)c3ccc(F)cc3)n2)ccc1F  False
 6  CN1CCN(C(=O)COc2ccc(C34CC5CC(CC(C5)C3)C4)cc2)CC1  False
 7  C#Cc1cccc(Nc2nc3cc([N+](=O)[O-])ccc3nc2Nc2ccc(O)cc2)c1  False
 8  CC[C@@H](c1ccc(O)c(O)c1)[C@@H](CC)c1ccc(O)c(O)c1  False
 9  Nc1nc2[nH]cc(CCc3ccc(C(=O)N[C@@H](CCC(=O)O)C(=O)O)cc3)c2c(=O)[nH]1   True
10  NC(=S)N/N=C1\c2cc(Cl)ccc2-c2c1cc(Cl)cc2[N+](=O)[O-]  False
11  O=C(Nc1nn2c(-c3cc(C(F)(F)F)cc(C(F)(F)F)c3)nnc2s1)C1CCCC1  False
12  OC(c1cc(C(F)(F)F)nc2c(C(F)(F)F)cccc12)C1CCCCN1 (centres undefined)  False
13  C/C=C/[C@@H]1O[C@@H]2COC(=O)C2=C[C@@H]1O  False
14  CCCCCCOc1ccc(/C=N/Nc2cc(C)nc3ccc(Cl)cc23)cc1  False

----------
- Tested on: A498 renal
- procedure.summary: NCI tumour cell line growth inhibition, 48 h; in the data active means GI50 below about 0.43 µM; inactive means the rest
Possible outcomes: active, inactive

> print(dat)
                               given.smiles  measurement.target     class
1  CC1(C)[C@@H](NOCCCN)CC[C@]2(C)[C@H]3C(=O)C=C4[C@@H]5C[C@](C)(C(=O)O)CC[C@]5(C)CC[C@@]4(C)[C@]3(C)CC[C@@H]12          A498 renal  inactive
2  CCNC(=O)C#Cc1ccc2c(C(=Nc3ccc(CN(C)C)cc3)c3ccccc3)c(O)[nH]c2c1          A498 renal    active
3  NC(=S)N/N=C1\c2cc(Cl)ccc2-c2c1cc(Cl)cc2[N+](=O)[O-]          A498 renal  inactive
4  Cc1[cH-]c(=O)n(-c2ccccc2)n1.[Au+].[Au].c1ccc([PH+](c2ccccc2)c2ccccc2)cc1.c1ccc([PH+](c2ccccc2)c2ccccc2)cc1          A498 renal  inactive
5  C=C1C[C@H](O)[C@H](Br)C(C)(C)[C@@]12CCC(C)=C(Cl)C2          A498 renal  inactive

----------
- System: SR leukemia
- procedure.summary: NCI tumour cell line growth inhibition, 48 h

compound	censor.symbol	TGI / µM
CN(C)C(=S)/N=c1\ssc(=S)n1C1CCCCC1	=	63.1
C=C(C)C12OC1[C@@]1(C)C(=CC2=O)CCC(O)[C@@H]1C (stereo partly specified)	=	11.3
COc1cc2c(cc1OC)-c1cc(OC)c(OC)cc1C(CN(C)C)C2 (stereo unspecified)	>	10
COc1ccc(Cn2c(Br)c3c(c2Br)-c2nc(N)sc2CC3)cc1	>	100
N#Cc1nc(-c2cnccn2)oc1N	>	100
NCCNCCNCCN	>	100
CC(C)(C)[Si](C)(C)OC1[C@@H](O[Si](C)(C)C(C)(C)C)[C@@H](CNC(=O)NC(=O)C(F)(F)F)O[C@H]1n1cnc2c(NC(=O)Nc3ccccc3)ncnc21 (stereo partly specified)	=	5.25
C[C@]12[C@@H]3CC[C@H]1[C@@H](O)C(=O)N2CC3	>	100
C[C@@H]1CC[C@H]2C(C)(C)[C@H]3C[C@@]12CC[C@@]3(C)O	=	48.6
Fc1cc(-c2nnc3n2N=C(c2ccc(Cl)cc2)CS3)c(Cl)cc1Cl	>	100
O=c1cc(-c2ccc3c(c2)OCO3)[nH]c2cc3c(cc12)OCO3	=	52.1

----------
- Tested on: UACC-257 melanoma
- procedure.summary: NCI tumour cell line growth inhibition, 48 h
result.type: TGI (µM)

> print(dat)
                                    molecule  result.type  censor.symbol  assay.value
 1  Cc1ccc(C(=O)OC(C(=O)O)C(OC(=O)c2ccc(C)cc2)C(=O)O)cc1 (stereo not given) (tested in a mixture with another compound)          TGI              =         13.7
 2  O=S(=O)(O)c1cc(N=Nc2c(O)ccc3ccccc23)cc2c(S(=O)(=O)O)cccc12          TGI              >          100
 3  COc1c(CC(C)=O)ccc2c1C(=O)c1ccc(C=O)c(OC(C)=O)c1C2=O          TGI              =         28.3
 4  C=C(C)C(=O)O[C@@H]1C[C@@]2(C)O[C@@H]2C[C@H](O)/C(C)=C/[C@H]2OC(=O)C(=C)[C@@H]21          TGI              >          100
 5                                NCCNCCNCCN          TGI              >          100
 6         CN(C)C(=S)/N=c1\ssc(=S)n1C1CCCCC1          TGI              =         64.9
 7  COc1ccc(C2=CC(C(C)=C(C(N)=O)C(N)=O)C=C(c3ccc(Br)cc3)C2)c(OC)c1 (stereo not given)          TGI              >          100
 8  O=C1c2c(F)c(F)c(F)c(F)c2C(=O)N1c1ccc(F)cc1F          TGI              =         57.2
 9  Cc1ccc(Nc2nc(NNC(=O)Cc3ccccc3)nc(NNC(=O)c3ccncc3)n2)cc1          TGI              >           10
10           N#Cc1cccc(-n2[nH]c(=O)ccc2=O)c1          TGI              >          100
